Tested on: 786-0 renal
test.name: NCI-60 one-dose screen, 48 h (100 = growth as untreated, 0 = no growth, -100 = all killed)
cond: 10 µM
About 83,000 compounds went through this panel and 20% of them were active in at least one assay; those are over-represented in the sample as a whole.
# growth per entry
Quick note: give the figure in %, leave out the unit.

Some entries whose results are on file:
compound | units | growth
N#Cc1c(-c2ccc(Cl)cc2)cc(-c2cc(O)ccc2O)nc1N | % | -4.38
CS(=O)(=O)c1nccc(-c2c(-c3cccc(OCc4ccccc4)c3)nc3sccn23)n1 | % | 86.3
COc1ccc(/C=C/C(=O)C(=O)/C=C/c2ccc(OC)c(OC)c2)cc1OC | % | 3.43

Exercise: Requested field: growth. Item: `O=C1c2ccccc2-c2c1c1cccnc1c(=O)n2C[C@H](O)CO`
Key: 55.2

Exercise: What value of growth has been reported for the following compound? `Cc1ccc(Cl)cc1NC(=O)CCl`
Key: 81.2

Exercise: Item under review: `N#Cc1ccc(C(=O)CSc2nccc(Nc3ccc(C(=O)O)cc3)n2)cc1` . Reported growth?
Key: 104

Exercise: I'd like to know its growth. The compound in question is `COc1ccccc1-n1c(-c2sc(NC(C)=O)nc2C)n[nH]c1=S`
Key: 106

Exercise: Can you look up the measured growth of OCC1OC2C(NC(=S)N2c2ccccc2)C(O)C1O (stereo unspecified) for me?
Key: 110

Exercise: # get_value(readout='growth', item= `CC1(C)N=C(N)N=C(N)N1c1cccc(C#N)c1` )
Key: 35.8

Exercise: Fill in the blank: the reported growth of `COc1ccc(C(=O)c2cc3c(OC)c(OC)c(OC)cc3[nH]2)cc1` is ____.
Key: 73.2

Exercise: What value of measured growth is listed for `CC(C)(C)OC(=O)CN1CCc2c(sc3ncnc(N/N=C/c4ccccc4Br)c23)C1` ?
Key: 77
